system: COLO 205; assay: NCI tumour cell line growth inhibition, 48 h
The source made the active and inactive calls. Cut-off read from the data, not from the text of the source: active = GI50 up to about 1.1 µM and inactive = higher.
Choose one outcome from this list and give only that: active, inactive

compound	class name
COC(=O)NC(=O)c1cn(C2CCCCC2)c(=O)[nH]c1=O	inactive
O=C1C[C@H](c2ccccc2)O[C@@H](c2ccccc2)C1	inactive
Nc1nnc(CCC(=O)Nc2cc(Cl)ccc2Cl)n1N	inactive
CC(C)(Br)C1(O)CCCN1C(=O)c1ccccc1 (stereo unspecified)	inactive
CCOC(=O)c1c(-c2ccccc2)nc2c(OC)nccn12	inactive

### Prompt Called result for `COc1ccc([Se][Se]c2ccc(OC)cc2OC)c(OC)c1`
### Response inactive

### Prompt Also, `N=C(N)N/N=C/c1c(-c2ccc(Cl)cc2)nc2sc(Cl)cn12` please.
### Response active
